Tested on: MCF7 breast
Assay: NCI-60 one-dose screen, 48 h (100 = growth as untreated, 0 = no growth, -100 = all killed)
Conditions: 10 µM unless noted
This is part of a sample that, as a whole, favours compounds with a hit. Of some 83,000 tested, about 20% had one in any assay. Calls of active or inactive are those of the source. How the source made its calls: active means growth percent below 10; inactive means the rest.
growth values for the compounds below.

FC(F)(F)c1cccc(-c2nnn(Cc3cc(-c4cccc(Cl)c4)no3)n2)c1
99.1% (inactive)

GET /value?item= "COc1nc2ccccc2cc1/C=[N+](\[O-])c1ccccc1" &field=growth returns 28.6% (inactive)

GET /value?item= CCN1C(=O)N(CC)C2C1NN=c1s/c(=C\c3ccc([N+](=O)[O-])cc3)c(=O)n12 (stereo not given) &field=growth returns 7.6% (active)

GET /value?item= O=C(OCC(O)C(=O)NC12CC3CC(CC(C3)C1)C2)c1cccc(Br)c1 (stereo not given) &field=growth returns 91.7% (inactive)

GET /value?item= "CCOC(=O)c1c(C)c2c(n1Cc1ccccc1)CSc1cc(C#N)c(=O)[nH]c1-2" &field=growth returns 101% [100 µM] (inactive)

GET /value?item= COC(=O)c1nc(-c2ccccc2)oc1S(=O)(=O)NCC(c1ccc(Cl)cc1)N1CCCCC1 (stereo not given) &field=growth returns 34.7% (inactive)

---

Test system: UACC-62 melanoma
Assay: NCI-60 one-dose screen, 48 h (100 = growth as untreated, 0 = no growth, -100 = all killed)
Conditions: 10 µM unless noted
Compounds without any hit were thinned out: in the full panel of roughly 83,000, 20% have a hit.
// returns no (0) unless growth is strictly below -40%, in which case yes (1)

N=C(N)c1ccc(-c2ccc(-c3ccc(Cl)cc3Cl)s2)nc1
no (0)
COC(=O)CCc1c(/C=C2\N=C(c3ccc[nH]3)C=C2OC)[nH]c(C)c1C(=O)OCc1ccccc1
no (0)
COc1ccc(-c2ccc(-c3ccc(C(=N)N)nc3)s2)cc1
yes (1)
CCN(CC)CCCNC(=O)c1c2c(n3ccccc13)C(=O)c1ncccc1C2=O
yes (1)
C=C1C(=O)O[C@H]2[C@H]1CC/C(CNC(=O)/C=C/c1cc(OC)c(OC)c(OC)c1)=C\CC[C@@]1(C)O[C@@H]21
no (0)

Say whether its growth is strictly beneath -40%. Entry: COC(=O)c1nc(-c2ccccc2)oc1S(=O)(=O)NCC(c1ccc(Cl)cc1)N1CCCCC1 (stereo not drawn)
no (0)

Say whether its growth is strictly beneath -40%. Entry: "O=C(CSc1nnc(-c2cc(-c3ccc(Cl)cc3)nc3ccccc23)n1-c1ccccc1)Nc1ccc(Cl)cc1"
no (0)

Say whether its growth is strictly beneath -40%. Entry: CCOC(=O)CC1CSC(N/N=C/c2ccc(O)cc2)=N1 (stereo not drawn)
no (0)

---

Tested on: NCI-H522 lung
Assay: NCI-60 one-dose screen, 48 h
Conditions: 10 µM unless noted
About 83,000 compounds went through this panel and 20% of them were active in at least one assay; those are over-represented in the sample as a whole. Activity calls are given as the source filed them. Rule for the calls: active = growth percent below 10; inactive = the rest.
Tick one outcome: label 1 (active), label 0 (inactive)

As a guide, the following entries are already answered.
COC1=C(OC)C(=O)C(CCCCCCCCCCO)=C(C)C1=O
label 0
COc1ccc(-c2ccc(-c3ccc(C(=N)N)o3)o2)cc1
label 1
C#CCOc1ccc(C2=NN(C)C3N=C(Cl)c4ncn(C)c4N23)cc1OCC#C (centres undefined)
label 0

Could you kindly confirm the outcome this assay logged for "CCN1CCN(c2cc(C(=O)Nc3cccc(Nc4ccc5c(OC)cccc5n4)c3)cc(C(F)(F)F)c2)CC1" ?
label 1
